- target or test system: Recombinant KAT6A/MOZ (488-778) protein (Homo sapiens (Human), UniProt Q92794)
- Sequence (Q92794 488-778): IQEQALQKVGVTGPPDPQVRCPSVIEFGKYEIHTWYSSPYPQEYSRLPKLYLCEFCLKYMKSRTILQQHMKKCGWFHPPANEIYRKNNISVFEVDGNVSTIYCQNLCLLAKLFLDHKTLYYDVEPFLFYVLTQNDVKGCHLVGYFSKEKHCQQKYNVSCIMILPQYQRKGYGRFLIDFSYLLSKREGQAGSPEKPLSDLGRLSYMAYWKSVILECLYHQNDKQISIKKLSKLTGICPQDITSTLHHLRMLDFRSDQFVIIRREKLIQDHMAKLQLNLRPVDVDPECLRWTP
- method notes: KAT6A AlphaLISA Inhibition Screening Assay
- Assay type: biochemical
- measurement setup: read-out: Average Kat6A % inhibition @ 1 μM; 1 μM test compound
value kind: inhibition at 1 µM (%)

> print(dat)
                                   compound                     target.or.test.system          value.kind  result.value
1  CCc1ccc(OC)c(S(=O)(=O)Nc2noc3cc(Oc4ncc(CN[S+]([O-])C(C)(C)C)o4)cc(OC)c23)c1 (stereo not drawn) [Syn. Ex. 98]  Recombinant KAT6A/MOZ (488-778) protein (Homo sapiens (Human), UniProt Q92794)  inhibition at 1 µM            78
2  CCc1ccc(OC)c(S(=O)(=O)Nc2noc3cc(Cn4cc(CNC(=O)[C@H](C)F)cn4)cc(OC)c23)c1 (single isomer, unassigned) [Syn. Ex. 47b]  Recombinant KAT6A/MOZ (488-778) protein (Homo sapiens (Human), UniProt Q92794)  inhibition at 1 µM            96
3  C#CC(=O)NCc1cnn(Cc2cc(OC(F)F)c3c(NS(=O)(=O)c4cc(CC)ccc4OC)noc3c2)c1 [Syn. Ex. 53]  Recombinant KAT6A/MOZ (488-778) protein (Homo sapiens (Human), UniProt Q92794)  inhibition at 1 µM            98

Data provenance: patent US20250122182A1
